Sourced from PubChem BioAssay (NCI)

System: IGROV1 ovarian
Experiment: NCI tumour cell line growth inhibition, 48 h
Recorded GI50 for the following molecules

Examples with their reported GI50 follow.
[
  {
    "Molecule": "COc1ccc(/C=C\\c2cc(OC)c(OC)c(OC)c2)cc1OCC(=O)Nc1ccc2nc(C)sc2c1",
    "Observable": "GI50",
    "Observed Value": "3720 nM"
  },
  {
    "Molecule": "Cc1cn(-c2ccc(S(C)(=O)=O)cc2)c(-c2ccc(Cl)cc2)n1",
    "Observable": "GI50",
    "Observed Value": "> 100000 nM"
  },
  {
    "Molecule": "ClCc1cccc(CSc2ncnc3c2ncn3Cc2cccc(CCl)c2)c1",
    "Observable": "GI50",
    "Observed Value": "1950 nM"
  },
  {
    "Molecule": "COc1cc(C2C3=C(COC3=O)N(CCO)c3cc4c(cc32)OCO4)cc(OC)c1O (stereo unspecified)",
    "Observable": "GI50",
    "Observed Value": "1470 nM"
  },
  {
    "Molecule": "O=C(N/N=C/c1cc(Cl)cc(Cl)c1[O-])c1ccccc1.O=C(N/N=C/c1cc(Cl)cc(Cl)c1[O-])c1ccccc1.[Co+2]",
    "Observable": "GI50",
    "Observed Value": "27800 nM"
  }
]

We next turn to a different molecule, shown below.
response.value for `Cc1ccc(NCCN(C)C)c2c(=O)c3ccccc3sc12` (field: GI50) = 1500 nM
